B1: glmS ribozyme (parent)
chain: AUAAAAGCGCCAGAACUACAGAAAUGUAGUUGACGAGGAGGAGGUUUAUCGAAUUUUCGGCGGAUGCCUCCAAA

Variants of: B1
ASSAY EXPLANATION: self-cleavage kobs at 10000 uM GlcN6P; higher = faster cleavage; RNA array
REPORTED CONDITIONS: with glucosamine-6-phosphate
Variants at the floor of the assay were thinned out.
MEASURED QUANTITY: self-cleavage kobs at 10000 uM GlcN6P

Example variants with recorded self-cleavage kobs at 10000 uM GlcN6P:
       mutation_label  reported_result
0  A6G C50U C58U U65G      < 1e-05 s⁻¹
1      G32U G63U C71A      < 1e-05 s⁻¹
2      C11G U46A C67G      < 1e-05 s⁻¹
3           A15U G62U      < 1e-05 s⁻¹
4           A53C G63A      < 1e-05 s⁻¹
5           U30A G62A      < 1e-05 s⁻¹

Report self-cleavage kobs at 10000 uM GlcN6P for A42G G43C
< 1e-05 s⁻¹

Report self-cleavage kobs at 10000 uM GlcN6P for A48C U49G
< 1e-05 s⁻¹

Report self-cleavage kobs at 10000 uM GlcN6P for A14U G41C G43A G63U C67A C70A
< 1e-05 s⁻¹

Report self-cleavage kobs at 10000 uM GlcN6P for A48U U54A
0.000524 s⁻¹

Report self-cleavage kobs at 10000 uM GlcN6P for G35A U56C C58U
< 1e-05 s⁻¹

Report self-cleavage kobs at 10000 uM GlcN6P for A39C C67U
0.000443 s⁻¹

Report self-cleavage kobs at 10000 uM GlcN6P for A39C U65G C70G
< 1e-05 s⁻¹

Source: the supplement of paper PMC7125110
